- Tested on: HOP-62 NSCLC
- experiment-description: NCI-60 one-dose screen, 48 h (100 = growth as untreated, 0 = no growth, -100 = all killed)
- run-parameters: 10 µM unless noted
About 83,000 compounds went through this panel and 20% of them were active in at least one assay; those are over-represented in the sample as a whole.
So I've got a bunch of molecules here, and I need their growth values.
I only need the number, in %, no unit after it.

Given "CN(C)Cc1ccc(NC(=O)c2cncc(C#Cc3cnc(N)c4ncccc34)c2)cc1C(F)(F)F" , state its recorded growth.
79.8

Please give the result for "C#CCOc1cccc(Nc2ncnc3cc(NC(=O)CCl)ccc23)c1" too.
-61.6

And what about the molecule "COC(=O)c1c2c(c(C)[n+]([O-])c1C)C(=O)C(NCc1ccccc1)=CC2=O" ?
67.1

Try this molecule next: "CC(=O)c1c(Nc2cccc(F)c2)[nH]c2c(Cl)cc(Cl)c(Cl)c2c1=O"
-10.1
